Where do these numbers come from? They come from ChEMBL document CHEMBL4340507.

Tested on: PC-3
Assay: Antiproliferative activity against human PC3 cells assessed as decrease in cell viability measured after 72 hrs by MTT assay
Assay type: functional, cell-based
Details: PC-3, 72 h
MEASURED_QUANTITY: pIC50
Keep in mind that pIC50 stands for -log10 of concentration in molar terms.

{"CHEMICAL_SMILES": "CN1CCN(Cc2cn(C)c3ccc(C(=O)Nc4ccc(F)cc4)cc23)CC1", "MEASURED_QUANTITY": "pIC50", "RECORDED_NUMBER": 4.05}
{"CHEMICAL_SMILES": "CN(CCc1ccccc1)Cc1cn(C)c2ccc(C(=O)Nc3ccc(F)cc3)cc12", "MEASURED_QUANTITY": "pIC50", "RECORDED_NUMBER": 4.32}
{"CHEMICAL_SMILES": "CN(CCc1ccc(-c2ccccc2)cc1)Cc1cn(C)c2ccc(C(=O)N3CCCCC3)cc12", "MEASURED_QUANTITY": "pIC50", "RECORDED_NUMBER": 4.28}
{"CHEMICAL_SMILES": "CN(Cc1ccc(-c2ccccc2)cc1)Cc1cn(C)c2ccc(CNc3ccc(F)cc3)cc12", "MEASURED_QUANTITY": "pIC50", "RECORDED_NUMBER": 4.07}
{"CHEMICAL_SMILES": "Cn1cc(CNCCc2ccc(-c3ccccc3)cc2)c2cc(CNc3ccc(F)cc3)ccc21", "MEASURED_QUANTITY": "pIC50", "RECORDED_NUMBER": 5.68}

Looking up `CN(CCc1ccc(-c2ccccc2)cc1)Cc1cn(C)c2ccc(C(=O)Nc3ccc(F)cc3)cc12` , I found its pIC50 recorded as 4.77

Looking up `CN(Cc1cccc2ccccc12)Cc1cn(C)c2ccc(CNc3ccc(F)cc3)cc12` , I found its pIC50 recorded as 5.03

Looking up `CCNC(=O)c1ccc2c(c1)c(CN(C)CCc1ccc(-c3ccccc3)cc1)cn2C` , I found its pIC50 recorded as 4.06
